- SYSTEM TESTED: T1, recombinant human CD3ε-ECD His protein (human, UniProt P07766 23-126)
- T1 construct: extracellular domain; also called human CD3ε-His; CD3ε antigen protein; not shown: His tag
- T1 sequence (P07766 23-126): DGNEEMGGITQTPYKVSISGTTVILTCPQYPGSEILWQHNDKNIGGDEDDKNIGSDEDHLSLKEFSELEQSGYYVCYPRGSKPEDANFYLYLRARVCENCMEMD
- PROCEDURE TEXT: SPR (Biacore), antibody captured on Protein A chip
METRIC NAME: koff (s⁻¹)
Note: unit s⁻¹ is implicit; provide only the numeric part.

Query :: Given the binder 6-44.5 human-murine chimeric antibody (antibody, human IgG1, kappa, V domains shown, Human IgG1 chimera) VH: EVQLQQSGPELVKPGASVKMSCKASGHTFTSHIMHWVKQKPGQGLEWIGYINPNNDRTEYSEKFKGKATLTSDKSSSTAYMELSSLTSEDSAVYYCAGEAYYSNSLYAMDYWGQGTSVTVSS VL: DIVMSQSPSSLAVSAGEKVTMSCKSSQSLFNSRTRKNYLAWYQQKPGQSPELLIYWASTRESGVPVRFTGSGSGTDFTLTISSVQAEDLAVYYCKQSYYLRTFGGGTKLEVKR , what is its reported koff?
Result :: 0.000259
